STUDY_SYSTEM: human A3 adenosine receptor (Homo sapiens, UniProt P0DMS8)
Construct: whole cells for cAMP
Sequence (P0DMS8 1-318): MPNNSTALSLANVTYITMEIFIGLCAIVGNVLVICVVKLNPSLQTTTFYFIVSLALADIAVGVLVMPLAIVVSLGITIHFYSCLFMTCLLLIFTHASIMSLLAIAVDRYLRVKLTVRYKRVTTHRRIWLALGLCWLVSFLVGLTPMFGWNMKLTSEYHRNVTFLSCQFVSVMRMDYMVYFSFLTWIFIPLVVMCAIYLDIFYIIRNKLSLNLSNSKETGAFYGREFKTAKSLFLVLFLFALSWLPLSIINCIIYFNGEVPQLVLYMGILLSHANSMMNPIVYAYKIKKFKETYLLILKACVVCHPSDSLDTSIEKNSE
PROTOCOL_SUMMARY: cAMP accumulation at human A3 receptors expressed in CHO cells
CONDITION_INFO: CHO cells stably expressing human A3R; read-out: EC50 ± SEM, Human A3R, cAMP accumulation
pEC50: −log10 of the molar value.
MEASURED_QUANTITY: pEC50

[[record]]
compound = "CSc1nc(N)c2ncn([C@H]3[C@H](O)[C@H](O)[C@]4(CO)C[C@H]34)c2n1 [MRS4322]"
study_system = "human A3 adenosine receptor (Homo sapiens, UniProt P0DMS8)"
measured_quantity = "pEC50"
experimental_result = 5.44


----------
PROTOCOL_SUMMARY: Brain binding determination by brain homogenate ultrafiltration, neonatal pig
Type: in vitro ADME
CONDITION_INFO: female, pH 7.4, 37° C., read-out: % Bound Mean (converted)
MEASURED_QUANTITY: fraction unbound at 60 min, 1 uM

[[record]]
structure_string = "CSc1nc(N)c2ncn([C@H]3[C@H](O)[C@H](O)[C@]4(CO)C[C@H]34)c2n1"
experimental_result = 0.253


----------
PROTOCOL_SUMMARY: Brain binding determination by brain homogenate ultrafiltration, mouse
Type: in vitro ADME
CONDITION_INFO: male, CD-1, mouse, brain homogenate, pH 7.4, mouse brain homogenate, 37° C., ultrafiltration, read-out: % Bound Mean (converted)
MEASURED_QUANTITY: fraction unbound at 60 min, 1 μM

[[record]]
molecule = "CNC(=O)[C@@]12C[C@@H]1[C@@H](n1cnc3c(NCc4cccc(Cl)c4)nc(C#Cc4ccc(F)c(F)c4)nc31)[C@H](O)[C@@H]2O [MRS5698]"
experimental_result = 0.0001

[[record]]
molecule = "CSc1nc(N)c2ncn([C@H]3[C@H](O)[C@H](O)[C@]4(CO)C[C@H]34)c2n1 [MRS4322]"
experimental_result = 0.13


----------
PROTOCOL_SUMMARY: Pharmacokinetics of MRS4322 following intravenous administration to neonatal pigs
Format: in vivo
CONDITION_INFO: female, pig, plasma, iv, 0.2 mg/kg, MRS4322 0.2 mg/kg IV, 4 h, mean, read-out: Plasma Concentration Mean
Experimental: Animals. Four-week old female neonatal pigs weighing approximately 7.5 Kg were used for this study, supplied by the Department of Bioengineering, University of Pennsylvania (Philadelphia, PA). […] For bioanalysis of brain concentrations of MRS4322, brain samples were homogenized in ice-cold phosphate-buffered saline in a 4× dilution. Aliquots of the resulting diluted brain homogenate were treated with acetonitrile and analyzed by LC-MS/MS.
MEASURED_QUANTITY: concentration at 4 h (ng/mL)

[[record]]
structure_string = "CSc1nc(N)c2ncn([C@H]3[C@H](O)[C@H](O)[C@]4(CO)C[C@H]34)c2n1"
experimental_result = 24.6

